Reference for the values: patent US20230295131A1

Reported Kd by item:
# TARGET: ROCK1 (Homo sapiens)
# Construct: T7 phage fusion (kinase-tagged phage) or DNA tag for qPCR detection
# Sequence (Q13464 whole entry, the tested form may be a part): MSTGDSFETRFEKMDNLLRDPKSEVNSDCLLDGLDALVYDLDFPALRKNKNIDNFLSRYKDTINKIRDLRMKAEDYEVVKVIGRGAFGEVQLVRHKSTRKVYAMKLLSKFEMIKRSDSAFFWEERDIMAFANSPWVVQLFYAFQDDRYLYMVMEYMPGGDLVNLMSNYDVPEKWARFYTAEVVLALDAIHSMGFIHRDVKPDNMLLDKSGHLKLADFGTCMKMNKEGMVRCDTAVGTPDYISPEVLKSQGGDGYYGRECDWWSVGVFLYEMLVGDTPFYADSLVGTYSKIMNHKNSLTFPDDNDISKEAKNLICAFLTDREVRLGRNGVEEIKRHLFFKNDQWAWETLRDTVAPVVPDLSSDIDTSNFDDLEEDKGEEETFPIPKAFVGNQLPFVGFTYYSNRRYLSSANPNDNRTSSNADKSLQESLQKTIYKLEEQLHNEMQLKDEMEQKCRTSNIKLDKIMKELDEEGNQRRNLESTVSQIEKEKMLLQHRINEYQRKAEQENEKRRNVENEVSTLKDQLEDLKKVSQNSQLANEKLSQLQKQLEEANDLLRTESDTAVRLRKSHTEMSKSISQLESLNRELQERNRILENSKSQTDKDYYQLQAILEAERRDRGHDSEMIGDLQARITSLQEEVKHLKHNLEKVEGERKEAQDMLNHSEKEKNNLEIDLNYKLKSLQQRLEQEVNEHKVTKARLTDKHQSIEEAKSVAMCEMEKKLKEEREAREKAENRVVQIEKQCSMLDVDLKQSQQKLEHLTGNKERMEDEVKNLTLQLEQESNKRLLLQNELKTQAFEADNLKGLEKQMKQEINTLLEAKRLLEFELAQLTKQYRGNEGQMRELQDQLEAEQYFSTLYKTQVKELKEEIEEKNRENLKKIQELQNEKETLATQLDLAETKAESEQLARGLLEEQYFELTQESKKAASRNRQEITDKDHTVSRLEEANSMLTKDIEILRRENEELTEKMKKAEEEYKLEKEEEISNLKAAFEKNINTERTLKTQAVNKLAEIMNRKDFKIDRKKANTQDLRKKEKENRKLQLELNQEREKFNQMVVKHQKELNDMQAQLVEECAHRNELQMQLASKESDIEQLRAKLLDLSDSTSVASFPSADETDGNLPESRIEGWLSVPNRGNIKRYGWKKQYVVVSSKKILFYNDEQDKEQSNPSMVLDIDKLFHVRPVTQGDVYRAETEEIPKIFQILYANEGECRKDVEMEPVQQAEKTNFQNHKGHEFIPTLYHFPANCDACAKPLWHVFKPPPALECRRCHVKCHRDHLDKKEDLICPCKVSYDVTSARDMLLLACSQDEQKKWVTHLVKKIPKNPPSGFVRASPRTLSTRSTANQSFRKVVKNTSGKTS
# METHOD DESCRIPTION: ROCK1 kinase binding affinity, DiscoverX KINOMEscan KdELECT
# CONDITION CONTEXT: 11-point 3-fold dilution

C(#Cc1ccnc(-c2ccnc(NC[C@H]3CCOC3)n2)n1)c1ccc2[nH]ncc2c1 | 1 to 9.9 µM
OC[C@H]1CC[C@@H](CNc2nccc(-c3nccc(C#Cc4ccc5[nH]ncc5c4)n3)n2)O1 | 0.1 to 0.99 µM
CN(Cc1ccc(F)cn1)c1nccc(-c2nccc(C#Cc3ccc4[nH]ncc4c3)n2)n1 | 1 to 9.9 µM
Fc1cccc(CNc2nccc(-c3nccc(C#Cc4ccc5[nH]ncc5c4)n3)n2)c1F | 1 to 9.9 µM
C(#Cc1ccnc(-c2ccnc(NCc3ncc[nH]3)n2)n1)c1ccc2[nH]ncc2c1 | 1 to 9.9 µM
Fc1ccc(CNc2nccc(-c3nccc(C#Cc4ccc5[nH]ncc5c4)n3)n2)nc1 | 1 to 9.9 µM

Read the next record carefully.
Exercise: Recorded Kd of Fc1ccc(CNc2nccc(-c3nccc(C#Cc4cc(F)c5[nH]ncc5c4)n3)n2)nc1 , please.
Key: 1 to 9.9 µM

###

# TARGET: ROCK2 (Homo sapiens, UniProt O75116)
# Construct: T7 phage fusion (kinase-tagged phage) or DNA tag for qPCR detection
# Sequence (O75116 whole entry, the tested form may be a part): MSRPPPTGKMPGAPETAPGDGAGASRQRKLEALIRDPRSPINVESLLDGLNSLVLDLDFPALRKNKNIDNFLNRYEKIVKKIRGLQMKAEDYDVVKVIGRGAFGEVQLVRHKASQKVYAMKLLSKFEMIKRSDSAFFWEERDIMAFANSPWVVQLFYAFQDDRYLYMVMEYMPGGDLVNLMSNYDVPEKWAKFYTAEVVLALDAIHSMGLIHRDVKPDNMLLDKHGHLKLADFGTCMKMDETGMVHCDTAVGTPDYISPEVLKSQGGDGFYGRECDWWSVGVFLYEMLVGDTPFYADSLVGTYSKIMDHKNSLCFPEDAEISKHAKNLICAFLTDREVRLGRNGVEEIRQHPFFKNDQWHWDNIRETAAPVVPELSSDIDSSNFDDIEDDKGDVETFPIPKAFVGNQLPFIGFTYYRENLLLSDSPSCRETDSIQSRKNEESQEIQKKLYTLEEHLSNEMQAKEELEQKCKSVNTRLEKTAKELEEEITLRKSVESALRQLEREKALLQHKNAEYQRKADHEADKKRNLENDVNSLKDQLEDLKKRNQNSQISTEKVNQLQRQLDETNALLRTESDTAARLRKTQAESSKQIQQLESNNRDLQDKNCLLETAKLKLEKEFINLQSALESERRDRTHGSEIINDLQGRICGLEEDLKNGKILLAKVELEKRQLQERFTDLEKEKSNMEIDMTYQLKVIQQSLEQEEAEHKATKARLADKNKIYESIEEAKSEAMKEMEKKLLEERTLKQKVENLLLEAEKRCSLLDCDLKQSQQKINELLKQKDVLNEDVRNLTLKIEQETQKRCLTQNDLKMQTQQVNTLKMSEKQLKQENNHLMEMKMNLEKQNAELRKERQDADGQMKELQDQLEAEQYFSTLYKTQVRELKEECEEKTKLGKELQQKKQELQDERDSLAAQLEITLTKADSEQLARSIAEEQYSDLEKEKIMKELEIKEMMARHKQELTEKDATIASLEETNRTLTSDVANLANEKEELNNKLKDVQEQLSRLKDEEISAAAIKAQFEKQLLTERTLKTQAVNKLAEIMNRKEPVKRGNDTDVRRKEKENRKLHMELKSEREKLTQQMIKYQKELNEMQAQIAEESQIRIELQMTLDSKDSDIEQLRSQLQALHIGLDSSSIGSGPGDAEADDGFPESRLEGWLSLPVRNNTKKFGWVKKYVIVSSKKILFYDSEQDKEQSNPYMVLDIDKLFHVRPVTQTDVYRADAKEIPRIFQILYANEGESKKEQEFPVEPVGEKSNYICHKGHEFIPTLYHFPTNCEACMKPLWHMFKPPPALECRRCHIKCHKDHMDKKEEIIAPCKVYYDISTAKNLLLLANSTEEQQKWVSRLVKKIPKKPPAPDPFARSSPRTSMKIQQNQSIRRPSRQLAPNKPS
# METHOD DESCRIPTION: ROCK2 kinase binding affinity, DiscoverX KINOMEscan KdELECT
# CONDITION CONTEXT: KINOMEscan KdELECT, 11-point 3-fold dilution; read-out: Kd (μM) ROCK2
# Experimental: 1. ROCK1 and ROCK2 kinase assays: The ROCK1 and ROCK2 kinase binding affinities of compounds in this disclosure were determined by DiscoverX's KINOMEscan™ KdELECT technology (https://www.discoverx.com/kinomescan-elect-kinase-screening-and-profiling-services): Kinase-tagged T7 phage strains were prepared in an E. coli host derived from the BL21 strain. […] Kds were determined using an 11-point 3-fold compound dilution series with three DMSO control points. […]
Recorded Kd values for a group of compounds are listed next.

C(#Cc1ccnc(-c2ccnc(NCC3CCCC3)n2)n1)c1ccc2[nH]ncc2c1 | 0.01 to 0.099 µM
Fc1ncccc1CNc1nccc(-c2nccc(C#Cc3ccc4[nH]ncc4c3)n2)n1 | < 0.01 µM
O=C(O)[C@H]1CC[C@@H](Nc2nccc(-c3nccc(C#Cc4ccc5[nH]ncc5c4)n3)n2)CC1 | 0.01 to 0.099 µM
COc1cc(F)ccc1CNc1nccc(-c2nccc(C#Cc3ccc4[nH]ncc4c3)n2)n1 | 0.01 to 0.099 µM
C(#Cc1ccnc(-c2ccnc(NCc3nc4ccccc4[nH]3)n2)n1)c1ccc2[nH]ncc2c1 | 0.01 to 0.099 µM

Exercise: What value of Kd on ROCK2 (Homo sapiens, UniProt O75116) does O=C(CNc1nccc(-c2nccc(C#Cc3ccc4[nH]ncc4c3)n2)n1)N1CCOCC1 have?
Key: < 0.01 µM

Exercise: So what Kd did Fc1cc(CNc2nccc(-c3nccc(C#Cc4ccc5[nH]ncc5c4)n3)n2)ccn1 get with ROCK2 (Homo sapiens, UniProt O75116)?
Key: < 0.01 µM

Exercise: What measured Kd is associated with C(#Cc1ccnc(-c2ccnc(NCc3ccccn3)n2)n1)c1ccc2[nH]ncc2c1 on ROCK2 (Homo sapiens, UniProt O75116)?
Key: 0.01 to 0.099 µM

Exercise: State its Kd on ROCK2 (Homo sapiens, UniProt O75116): Fc1ncccc1CNc1nccc(-c2nccc(C#Cc3cc(F)c4[nH]ncc4c3)n2)n1
Key: 0.01 to 0.099 µM

Exercise: Item CS(=O)(=O)CCNc1nccc(-c2nccc(C#Cc3ccc4[nH]ncc4c3)n2)n1 with ROCK2 (Homo sapiens, UniProt O75116) - Kd?
Key: < 0.01 µM

Exercise: Lab note: need Kd for [2H]C([2H])(Nc1nccc(-c2nccc(C#Cc3ccc4[nH]ncc4c3)n2)n1)c1ccccn1 on ROCK2 (Homo sapiens, UniProt O75116), anyone have it?
Key: < 0.01 µM

Exercise: Find Kd (ROCK2 (Homo sapiens, UniProt O75116)) for the entry O[C@H]1CC[C@@H](Nc2nccc(-c3nccc(C#Cc4ccc5[nH]nc(F)c5c4)n3)n2)CC1
Key: < 0.01 µM

Exercise: Any idea what Kd came out for Fc1ccc(CNc2nccc(-c3nccc(C#Cc4ccc5[nH]ncc5c4)n3)n2)cn1 on ROCK2 (Homo sapiens, UniProt O75116)?
Key: 0.01 to 0.099 µM

Exercise: Return Kd measured with ROCK2 (Homo sapiens, UniProt O75116) given this compound: Fc1cc(F)c(F)c(CNc2nccc(-c3nccc(C#Cc4ccc5[nH]ncc5c4)n3)n2)c1
Key: 0.01 to 0.099 µM

Exercise: What measured Kd is associated with O[C@H]1CC[C@H](Nc2nccc(-c3nccc(C#Cc4ccc5[nH]ncc5c4)n3)n2)CC1 on ROCK2 (Homo sapiens, UniProt O75116)?
Key: < 0.01 µM

Exercise: Checklist item: Kd tested on ROCK2 (Homo sapiens, UniProt O75116), entry CC(Nc1nccc(-c2nccc(C#Cc3ccc4[nH]ncc4c3)n2)n1)c1ccc(F)cn1 (centres unmarked) , value?
Key: 0.01 to 0.099 µM

Exercise: Observed Kd on ROCK2 (Homo sapiens, UniProt O75116) for Fc1cc(CNc2nccc(-c3nccc(C#Cc4ccc5[nH]nc(F)c5c4)n3)n2)ccn1 , please.
Key: 0.01 to 0.099 µM
